- Tested on: Pyricularia oryzae IT10 strain on barley leaves (cv. Alora)
- TEST_CONTEXT: in vivo
QUANTITY_MEASURED: reduction of blast lesion area in comparison with untreated barley leaves

[[record]]
substance = "nOct-Aib-Gly-Leu-Aib-Gly-Lys-Leu-Aib-Gly-Ile-Lol [Pep 22]"
val = "ineffective"

[[record]]
substance = "nOct-Aib-Gly-Leu-Aib-Gly-Gly-Leu-Api-Gly-Ile-Lol [Pep 8Api]"
val = "higher than 95%"

[[record]]
substance = "nOct-Aib-Gly-Leu-Aib-Lys-Lys-Leu—Leu-NH2 [Pep 4C1]"
val = "ineffective"

[[record]]
substance = "nOct-Aib-Gly-Leu-Aib-Gly-Gly-Leu-Aib-Gly-Ile-Lol [Trichogin, Trichogin GA IV, reference compound]"
val = "ineffective"

[[record]]
substance = "nOct-Aib-Lys-Leu-Aib-Gly-Lys-Leu-Aib-Gly-Ile-Lol [Pep 7]"
val = "higher than 95%"

